Sourced from patent US8883850B2

# EXPERIMENTAL SYSTEM: acetylcholine muscarinic M1 receptor (Homo sapiens, UniProt P11229)
# Construct: expressed in transfected cells; host or cells: CHOnfat (CHO cells; also called CHOK1/hM1)
# Sequence (P11229 whole entry): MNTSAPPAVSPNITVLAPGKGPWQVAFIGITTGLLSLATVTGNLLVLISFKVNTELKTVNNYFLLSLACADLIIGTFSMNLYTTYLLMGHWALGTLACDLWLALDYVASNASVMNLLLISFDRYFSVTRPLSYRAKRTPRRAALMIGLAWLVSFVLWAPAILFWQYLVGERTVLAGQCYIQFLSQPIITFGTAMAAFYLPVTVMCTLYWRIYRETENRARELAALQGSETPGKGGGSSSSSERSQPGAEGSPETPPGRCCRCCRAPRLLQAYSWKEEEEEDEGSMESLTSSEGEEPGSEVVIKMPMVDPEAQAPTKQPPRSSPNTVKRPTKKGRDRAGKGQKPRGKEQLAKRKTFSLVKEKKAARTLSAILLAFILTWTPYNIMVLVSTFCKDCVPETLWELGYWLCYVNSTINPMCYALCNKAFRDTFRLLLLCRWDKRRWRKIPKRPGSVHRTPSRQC
# PROCEDURE TEXT: M1 FLIPR assay: intracellular calcium, potentiation of acetylcholine EC20
# Assay type: cell-based
# SETUP CONDITIONS: inflection point value from FLIPR assay; CHOnfat/hM1 cells; 4 min pre-incubation, then acetylcholine EC20 (3 nM final); Table 1, Formula (III); read-out: M1 IP Value
Each item that follows carries a reported pEC50.
FYI, pEC50 means -log10 of a concentration in mol per litre.

Worked set:
SMILES STR | TEST RESULT
COc1c(C(=O)N[C@H]2CCCC[C@@H]2O)cc(Cc2ccnc(C)c2)c2ccccc12 | 6.65
COc1cc(Cc2cc(C(=O)N[C@H]3CCCC[C@@H]3O)c(OC)c3ccccc23)ccn1 | 6.85
COc1c(C(=O)N[C@H]2CCOC[C@@H]2O)cc(Cc2ccc(-c3ccnc(C)c3)nc2)c2ccccc12 | 8.17
COc1c(C(=O)N[C@H]2CCOC[C@@H]2O)cc(Cc2ccc(-c3ccc(C)nc3)nc2)c2ccccc12 | 7.66
COc1c(C(=O)N[C@H]2CCOC[C@@H]2O)cc(Cc2ccc(C)nc2)c2ccccc12 | 7.06
COc1c(C(=O)N[C@H]2CCCC[C@@H]2O)cc(Cc2ccc(-c3cccnc3)nc2)c2ccccc12 | 7.62
COc1ccc(Cc2cc(C(=O)N[C@H]3CCCC[C@@H]3O)c(OC)c3ccccc23)cn1 | 6.55
COc1c(C(=O)O)cc(Cc2ccc(-c3ccccc3)cc2)c2ccccc12 | 6.06
COc1c(C(=O)O)cc(Cc2ccc(NC(C)=O)cc2)c2ccccc12 | 5.81

Now look at this entry.
Exam item: Quickly give me recorded pEC50 for COc1c(C(=O)N[C@H]2CCCC[C@@H]2O)cc(Cc2ccc(SC)nc2)c2ccccc12
Marked response: 6.77
